These entries and their values trace back to patent US20240148723A1.

# System: M. tuberculosis
# Type: cell-based, Mycobacterium tuberculosis
# setup.conditions: pH 6.8
Listed next: entries and their corresponding MIC in the media L-Ala.
parameter: MIC in the media L-Ala (µg/mL)

Cc1nc(C(=O)N=C(N)N)c(N)nc1-c1ccccc1 [compound 614911] | 13.52
CN1CCN(c2ccc(C(=O)Nc3n[nH]c4ccc(Cc5cc(F)cc(F)c5)cc34)c(NC3CCOCC3)c2)CC1 [compound 774769] | 7.01
CN(C)CCCN1c2ccc3ccccc3c2Sc2cccc(Cl)c21 [compound 24113] | 2.31
NC(=O)c1ccccc1N [compound 38768] | 54.48
O=Nc1ccc(O)c2ncccc12 [compound 3852] | 2.18
CCCOC(=O)c1ccc([N+](=O)[O-])cc1 [compound 406847] | 5.23
Cc1ccc(NCCN(C)C)c2c(=O)c3cc(O)ccc3sc12.I [compound 317003] | 2.85
O=C(CCc1ccc(O)cc1)c1c(O)cc(O)cc1O [compound 407292] | 1.71
CC1(C)CCSC(C=Cc2ccccc2)=N1 [compound 150954] | 5.78
COC1C=COC2(C)Oc3c(C)c(O)c4c(O)c(cc(O)c4c3C2=O)NC(=O)C(C)=CC=CC(C)C(O)C(C)C(O)C(C)C(OC(C)=O)C1C (stereo not shown) [compound 133100] | 0.56
COC(=O)c1ccc(N)cc1O [compound 30263] | 1.05
CCOC(=O)c1ccc(N)cc1 [compound 41531] | 0.26
CCOc1ccc(Nc2c3ccccc3nc3ccccc23)cc1 [compound 30205] | 1.97
CSc1ccc2c(c1)C(N1CCN(C)CC1)Cc1ccccc1S2.O=C(O)/C=C\C(=O)O (stereo not shown) [compound 281816] | 2.95
CCOC(=O)c1ccc([N+](=O)[O-])cc1 [compound 6763] | 9.76
COC(=O)c1cc([N+](=O)[O-])cc([N+](=O)[O-])c1 [compound 7317] | 11.31
COc1ccc(C(=O)c2ccccc2O)c(O)c1 [compound 56769] | 24.42
COc1ccc(-c2coc3cc(O)cc(O)c3c2=O)cc1 [compound 123538] | 7.11
Cl.O=C(c1ccc(OCCN2CCCCC2)cc1)c1c(-c2ccc(O)cc2)sc2cc(O)ccc12 [compound 747974] | 2.96
